Ref: the RNAGym collection of RNA variant scans (doi:10.7554/elife.80360)

Field: self-cleavage. Provide a value for each of the variants that follow.
B1: HDV Ribozyme (parent)
chain: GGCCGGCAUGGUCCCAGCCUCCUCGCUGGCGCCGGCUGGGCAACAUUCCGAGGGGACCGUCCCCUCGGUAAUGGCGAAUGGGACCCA

variants of: B1; assay: self-cleavage, relative activity (ratio to wild type); higher = more cleavage; co-transcriptional
Format: numeric value only, no unit, no commentary.

What value of measured self-cleavage is listed for C18U C19A ? 0.0906

For C24A G25C , what is its reported self-cleavage? 0.208

For the variant G6C C44G , what self-cleavage is on record? 0.0692

Given A43U C64G , state its recorded self-cleavage. 0.506

Need self-cleavage, item C57G C63A 0.956

Fill blank: measured self-cleavage of the variant A16U A77U is ____. 0.511

Give the measured self-cleavage of C58G U72G . 0.447

# lookup: self-cleavage of C49U C58U 0.991

Bench note: what self-cleavage did G59C A83C show? 0.514

I'd like to know its self-cleavage. The variant in question is A51C G76C 0.982

Query: self-cleavage; subject: C18G C26A 0.175
